# TESTED_ON: T1, soluble monomeric FcγRIIIA (extracellular region joined to linker-AVITAG), allele not stated (human, UniProt P08637 17-208)
# T1 construct: extracellular domain; also called FcRIIIA; CD16A; not shown: linker-AVITAG
# MEASUREMENT_DESCRIPTION: ELISA
RECORDED_METRIC: Binding to FcγRIIIA (ELISA) (fold increase)
State just the number; it will be interpreted in fold increase.

INSERT INTO measurements (binder, recorded_metric, recorded_value) VALUES
  ('IgG1 Fc mutant F275I, K334N, V348M (antibody) heavy: ASTKGPSVFPLAPSSKSTSGGTAALGCLVKDYFPEPVTVSWNSGALTSGVHTFPAVLQSSGLYSLSSVVTVPSSSLGTQTYICNVNHKPSNTKVDKKVEPKSCDKTHTCPPCPAPELLGGPSVFLFPPKPKDTLMISRTPEVTCVVVDVSHEDPEVKINWYVDGVEVHNAKTKPREEQYNSTYRVVSVLTVLHQDWLNGKEYKCKVSNKALPAPIENTISKAKGQPREPQMYTLPPSRDELTKNQVSLTCLVKGFYPSDIAVEWESNGQPENNYKTTPPVLDSDGSFFLYSKLTVDKSRWQQGNVFSCSVMHEALHNHYTQKSLSLSPGK', 'Binding to FcγRIIIA (ELISA)', 0.5),
  ('IgG1 Fc mutant K246R, S298N, I377F (antibody) heavy: ASTKGPSVFPLAPSSKSTSGGTAALGCLVKDYFPEPVTVSWNSGALTSGVHTFPAVLQSSGLYSLSSVVTVPSSSLGTQTYICNVNHKPSNTKVDKKVEPKSCDKTHTCPPCPAPELLGGPSVFLFPPRPKDTLMISRTPEVTCVVVDVSHEDPEVKFNWYVDGVEVHNAKTKPREEQYNNTYRVVSVLTVLHQDWLNGKEYKCKVSNKALPAPIEKTISKAKGQPREPQVYTLPPSRDELTKNQVSLTCLVKGFYPSDFAVEWESNGQPENNYKTTPPVLDSDGSFFLYSKLTVDKSRWQQGNVFSCSVMHEALHNHYTQKSLSLSPGK', 'Binding to FcγRIIIA (ELISA)', 1),
  ('IgG1 Fc mutant V282E, V369I, L406F (antibody) heavy: ASTKGPSVFPLAPSSKSTSGGTAALGCLVKDYFPEPVTVSWNSGALTSGVHTFPAVLQSSGLYSLSSVVTVPSSSLGTQTYICNVNHKPSNTKVDKKVEPKSCDKTHTCPPCPAPELLGGPSVFLFPPKPKDTLMISRTPEVTCVVVDVSHEDPEVKFNWYVDGEEVHNAKTKPREEQYNSTYRVVSVLTVLHQDWLNGKEYKCKVSNKALPAPIEKTISKAKGQPREPQVYTLPPSRDELTKNQVSLTCLIKGFYPSDIAVEWESNGQPENNYKTTPPVLDSDGSFFFYSKLTVDKSRWQQGNVFSCSVMHEALHNHYTQKSLSLSPGK', 'Binding to FcγRIIIA (ELISA)', 0.5);

I have this binder here, IgG1 Fc mutant D221Y, M252I, A330G, A339T, T359N, V422I, H433L (antibody) heavy: ASTKGPSVFPLAPSSKSTSGGTAALGCLVKDYFPEPVTVSWNSGALTSGVHTFPAVLQSSGLYSLSSVVTVPSSSLGTQTYICNVNHKPSNTKVDKKVEPKSCYKTHTCPPCPAPELLGGPSVFLFPPKPKDTLIISRTPEVTCVVVDVSHEDPEVKFNWYVDGVEVHNAKTKPREEQYNSTYRVVSVLTVLHQDWLNGKEYKCKVSNKALPGPIEKTISKTKGQPREPQVYTLPPSRDELNKNQVSLTCLVKGFYPSDIAVEWESNGQPENNYKTTPPVLDSDGSFFLYSKLTVDKSRWQQGNIFSCSVMHEALLNHYTQKSLSLSPGK , and I need its recorded Binding to FcγRIIIA (ELISA). 2.5
